As shown below, each of these compounds has a reported Population Normal (%) value.
Test system: Fibroblast
Test: Multiplex assay against human fibroblast
Assay type: toxicity, cell-based
Settings: 24 h, 10 µM, compound concentration 10 uM, replicate 1
Recorded metric: Population Normal (%)

smiles_entry=Cc1cc(O)c(-c2ccc([C@@H](C)CN(C)C)cc2)c2c1[nH]c(=O)c1sccc12 recorded_metric="Population Normal (%)" reported_result=96
smiles_entry=Nc1nc(CC(=O)Nc2ccc(CCNC[C@H](O)c3ccccc3)cc2)cs1 recorded_metric="Population Normal (%)" reported_result=97
smiles_entry=Cc1nn(C)c2nc(NNC(=O)Nc3cc(Cl)nc(Cl)c3)cc(C(C)C)c12 recorded_metric="Population Normal (%)" reported_result=95
smiles_entry=O=c1ccc2ccc(OCCCCN3CCN(c4cccc5sccc45)CC3)cc2[nH]1 recorded_metric="Population Normal (%)" reported_result=86
smiles_entry=C[C@H](NC(=O)CNC(=O)c1cccc(Cl)c1)c1ccccc1 recorded_metric="Population Normal (%)" reported_result=97
smiles_entry=CSc1nc(NC2CCCC2)c([N+](=O)[O-])c(NC2CCCC2)n1 recorded_metric="Population Normal (%)" reported_result=97
smiles_entry=N[C@](CC1c2ccccc2Oc2ccccc21)(C(=O)O)[C@H]1C[C@@H]1C(=O)O recorded_metric="Population Normal (%)" reported_result=98
smiles_entry=Cc1cc(-c2ccc3c(c2)CC[C@H]3N2CC3(CCN(C(=O)Cc4cn5cc(C)sc5n4)CC3)C2)ncn1 recorded_metric="Population Normal (%)" reported_result=96

---

System: U2OS
Test: Multiplex assay against U2OS
Assay type: toxicity, cell-based
Conditions: human, 24 h, 1 µM, compound concentration 1 uM, replicate 1
Recorded metric: Total Cell Count

compound=Cc1cc(-c2ccc3c(c2)CC[C@H]3N2CC3(CCN(C(=O)Cc4cn5cc(C)sc5n4)CC3)C2)ncn1 reported_result=282
compound=CN1CCC(C(=O)c2cccc(NC(=O)c3c(F)cc(F)cc3F)n2)CC1 reported_result=284
compound=COCCn1c(C)c(C)s/c1=N\C(=O)C1C(C)(C)C1(C)C reported_result=314
compound=CN1CCN(c2ccc(Nc3c4ccccc4nc4ccccc34)cc2)CC1.Cl.Cl.O reported_result=200
compound=CCc1nn2c(C)cc(C)nc2c1Cc1ccc(-c2nnc(C3CCNCC3)o2)cc1 reported_result=296
compound="CCC(=O)OCC(=O)[C@@]1(OC(=O)CC)[C@@H](C)C[C@H]2[C@@H]3CCC4=CC(=O)C=C[C@]4(C)[C@@]3(Cl)[C@@H](O)C[C@@]21C [BECLOMETHASONE DIPROPIONATE]" reported_result=217

---

System: U2OS
Assay: Multiplex assay against U2OS
Assay type: toxicity, cell-based
Conditions: human, 12 h, 10 µM, compound concentration 10 uM, replicate 1
One threshold, 9%, splits the recorded Population Pyknosed Nuclei (%) values: lower ones are true (1), equal or higher ones are false (0).

compound=COC(c1ccccc1)(c1ccccc1)[C@H](Oc1nc(C)cc(C)n1)C(=O)O assay_target=U2OS assigned_category="true (1)"
compound=S=C(NCCCc1c[nH]cn1)NCCCN(Cc1ccc(Cl)c(Cl)c1)c1ccc(Br)cn1 assay_target=U2OS assigned_category="false (0)"
compound=Cc1c(Cc2ccc3ccccc3n2)c2cc(F)ccc2n1CC(=O)O assay_target=U2OS assigned_category="true (1)"
compound=Nc1nc(CC(=O)Nc2ccc(CCNC[C@H](O)c3ccccc3)cc2)cs1 assay_target=U2OS assigned_category="false (0)"
compound=COc1c(Nc2ccc(S(C)(=O)=O)nc2C)ncnc1OC1CCN(C(=O)OC(C)C)CC1 assay_target=U2OS assigned_category="false (0)"
compound="CN1CCN2c3ccccc3Cc3ccccc3C2C1.Cl (centres undefined) [MIANSERIN HYDROCHLORIDE]" assay_target=U2OS assigned_category="true (1)"
compound="CCn1c(-c2nc3cc(C(=O)N4CCCC(N)C4)ccc3n2C)cc2ccccc21.Cl (centres undefined)" assay_target=U2OS assigned_category="false (0)"
compound=O=c1nc2[nH]c3ccccc3nc-2c(=O)[nH]1 assay_target=U2OS assigned_category="true (1)"
compound="O=C(NCCNCC(O)COc1ccc(O)cc1)N1CCOCC1.O=C(NCCNCC(O)COc1ccc(O)cc1)N1CCOCC1.O=C(O)/C=C/C(=O)O (centres undefined) [XAMOTEROL FUMARATE]" assay_target=U2OS assigned_category="false (0)"
compound=COCCn1c(C)c(C)s/c1=N\C(=O)C1C(C)(C)C1(C)C assay_target=U2OS assigned_category="false (0)"
compound=CC(C)(C)c1ccc(CSc2cnn(C(C)(C)C)c(=O)c2Cl)cc1 assay_target=U2OS assigned_category="false (0)"
compound=CC(C)(O)C(=O)N1CCN(c2ccc(C(F)(F)F)c(C3=C(c4c[nH]c5ccccc45)C(=O)NC3=O)c2)CC1 assay_target=U2OS assigned_category="false (0)"
compound=Cc1cc(-c2ccc3c(c2)CC[C@H]3N2CC3(CCN(C(=O)Cc4cn5cc(C)sc5n4)CC3)C2)ncn1 assay_target=U2OS assigned_category="false (0)"
compound=C=CCN1C[C@H](C(=O)N(CCCN(C)C)C(=O)NCC)C[C@@H]2c3cccc4[nH]cc(c34)C[C@H]21 assay_target=U2OS assigned_category="false (0)"
compound=CSc1nc(NC2CCCC2)c([N+](=O)[O-])c(NC2CCCC2)n1 assay_target=U2OS assigned_category="true (1)"
compound=Cc1cc(=O)n(C)c2cc(N3C(=O)CC[C@H](NS(=O)(=O)CC(C)C)[C@H]3c3ccc(Cl)cc3)ccc12 assay_target=U2OS assigned_category="false (0)"
compound=Cn1cc(C(=O)OCC2CCN(CCNS(C)(=O)=O)CC2)c2ccccc21 assay_target=U2OS assigned_category="true (1)"
compound=COc1cc(OC2CCN(C(C)=O)CC2)ccc1C(=O)N1CCC(N2C(=O)OCc3ccccc32)CC1 assay_target=U2OS assigned_category="false (0)"
compound=COc1cc(C(=O)N2CC[C@@H](O)[C@@H](N)C2)cc2nc(-c3cc4ccccc4n3CC3CC3)n(C)c12.Cl assay_target=U2OS assigned_category="false (0)"
compound="Cc1ccc(OCC(O)C(C)NC(C)C)c2c1CCC2.Cl (centres undefined)" assay_target=U2OS assigned_category="false (0)"
compound=CCCCC[C@H](O)/C=C/[C@H]1[C@H](O)CC(=O)[C@@H]1CCCCCCC(=O)O assay_target=U2OS assigned_category="true (1)"
compound=OCCCNc1cc(-c2ccnc(Nc3cccc(Cl)c3)n2)ccn1 assay_target=U2OS assigned_category="true (1)"

---

Test system: HEK-293T
Experiment: Multiplex assay against HEK293T
Assay type: toxicity, cell-based
Settings: human, 12 h, 1 µM, compound concentration 1 uM, replicate 2
Non-standard residues stand in square brackets, D forms with d. Residues, ends and D or L forms follow the SMILES beside them.
Recorded metric: Population Hoechst High Intensity Objects (%)

compound=COC(c1ccccc1)(c1ccccc1)[C@H](Oc1nc(C)cc(C)n1)C(=O)O reported_result=11
compound=COCCn1c(C)c(C)s/c1=N\C(=O)C1C(C)(C)C1(C)C reported_result=4
compound=Cc1cc(-c2ccc3c(c2)CC[C@H]3N2CC3(CCN(C(=O)Cc4cn5cc(C)sc5n4)CC3)C2)ncn1 reported_result=10
compound=O=c1nc2[nH]c3ccccc3nc-2c(=O)[nH]1 reported_result=7
compound=CCc1nn2c(C)cc(C)nc2c1Cc1ccc(-c2nnc(C3CCNCC3)o2)cc1 reported_result=5
compound=CN(C)C(=O)Cn1cc(-c2ccc(-c3nnc4ccccn34)cc2)cn1 reported_result=10
compound=COc1cc(C(=O)N2CC[C@@H](O)[C@@H](N)C2)cc2nc(-c3cc4ccccc4n3CC3CC3)n(C)c12.Cl reported_result=15
compound=Cc1sc2c(c1C)C(c1ccc(Cl)cc1)=N[C@H](CC(=O)OC(C)(C)C)c1nnc(C)n1-2 reported_result=9
compound=Nc1nc(-c2ccco2)c2cnn(Cc3ccccc3F)c2n1 reported_result=11
compound=CC(C)(C)c1ccc(CSc2cnn(C(C)(C)C)c(=O)c2Cl)cc1 reported_result=8
compound=Cc1c(Cc2ccc3ccccc3n2)c2cc(F)ccc2n1CC(=O)O reported_result=7
compound=CCCCC[C@H](O)/C=C/[C@H]1[C@H](O)CC(=O)[C@@H]1CCCCCCC(=O)O reported_result=6
compound=CN1CCC(C(=O)c2cccc(NC(=O)c3c(F)cc(F)cc3F)n2)CC1 reported_result=7
compound="CCn1c(-c2nc3cc(C(=O)N4CCCC(N)C4)ccc3n2C)cc2ccccc21.Cl (centres undefined)" reported_result=6
compound="COCCCN1CCC(NC(=O)c2cc(Cl)c(N)c3c2OCC3)CC1 [PRUCALOPRIDE]" reported_result=7
compound="O=C(NCCNCC(O)COc1ccc(O)cc1)N1CCOCC1.O=C(NCCNCC(O)COc1ccc(O)cc1)N1CCOCC1.O=C(O)/C=C/C(=O)O (centres undefined) [XAMOTEROL FUMARATE]" reported_result=14
compound=OCCCNc1cc(-c2ccnc(Nc3cccc(Cl)c3)n2)ccn1 reported_result=11
compound=Cc1nn(C)c2nc(NNC(=O)Nc3cc(Cl)nc(Cl)c3)cc(C(C)C)c12 reported_result=2
compound=CC(C)C[C@H](CO)Nc1nc(S[C@@H](C)c2ccccc2)nc2nc(N)sc12 reported_result=7
compound=COc1cc2nc(N3CCN(C(=O)COc4c(OC)cccc4C(C)C)CC3)nc(N)c2cc1OC.Cl.Cl reported_result=4
compound=Cc1cc(=O)n(C)c2cc(N3C(=O)CC[C@H](NS(=O)(=O)CC(C)C)[C@H]3c3ccc(Cl)cc3)ccc12 reported_result=6
compound="Cl.Cl.OCCOCCN1CCN(C(c2ccccc2)c2ccc(Cl)cc2)CC1 (centres undefined) [HYDROXYZINE HYDROCHLORIDE]" reported_result=9
compound="CC(C)C[C@@H]1NC(=O)[C@@H](C(C)C)NC(=O)[C@@H]2CCCN2C(=O)[C@@H](CC(=O)O)NC(=O)[C@@H](Cc2c[nH]c3ccccc23)NC1=O [BQ-123] (cyclo(L[dW][dD]P[dV]))" reported_result=7
compound="CCC(=O)OCC(=O)[C@@]1(OC(=O)CC)[C@@H](C)C[C@H]2[C@@H]3CCC4=CC(=O)C=C[C@]4(C)[C@@]3(Cl)[C@@H](O)C[C@@]21C [BECLOMETHASONE DIPROPIONATE]" reported_result=4
